System: ragweed (common ragweed, Ambrosia elatior)
Test: Test A postemergence, visual injury rating
Assay type: in vivo
Conditions: 125 g ai/ha, 0 is no effect, 100 is complete control
Attribute Measured: Ragweed plant response rating (0 to 100 scale)
Give bare numbers.

Solved cases (8 shown):
| Compound | Tested On | Observed Measurement |
| --- | --- | --- |
| N#Cc1ccc(Oc2ncc(Cl)cn2)c(C(=O)OCCC(F)(F)F)c1 [Compound 64] | ragweed (common ragweed, Ambrosia elatior) | 0 |
| C=C(Br)COC(=O)c1c(Br)cccc1Oc1ncc(Cl)cn1 [Compound 61] | ragweed (common ragweed, Ambrosia elatior) | 10 |
| N#Cc1cccc(Oc2ncc(Cl)cn2)c1C(=O)OCCC(F)(F)F [Compound 30] | ragweed (common ragweed, Ambrosia elatior) | 0 |
| N#CCCOC(=O)c1c(Br)cccc1Oc1ncc(Cl)cn1 [Compound 7] | ragweed (common ragweed, Ambrosia elatior) | 40 |
| O=C(OCC(F)(F)C(F)(F)F)c1c(F)cccc1Oc1ncc(Cl)cn1 [Compound 5] | ragweed (common ragweed, Ambrosia elatior) | 0 |
| CCCC(=O)c1c(C#N)cccc1Oc1ncc(Cl)cn1 [Compound 67] | ragweed (common ragweed, Ambrosia elatior) | 0 |
| CN(OCC(F)(F)F)C(=O)c1c(Br)cccc1Oc1ncc(Cl)cn1 [Compound 25] | ragweed (common ragweed, Ambrosia elatior) | 10 |
| O=C(OCC(Cl)(Cl)Cl)c1c(Br)cccc1Oc1ncc(Cl)cn1 [Compound 45] | ragweed (common ragweed, Ambrosia elatior) | 10 |

Hey, quick one: what's Ragweed plant response rating (0 to 100 scale) for each of these?
1. CN(OCC(F)(F)F)C(=O)c1c(Br)cccc1Oc1ncc(Br)cn1 [Compound 24]
2. N#Cc1cnc(Oc2cccc(Br)c2C(=O)OCC(F)(F)F)nc1 [Compound 31]
3. FC(F)(F)C(F)(F)COCc1c(Br)cccc1Oc1ncc(Cl)cn1 [Compound 63]

Response:
[0, 0, 0]

###

Test system: blackgrass (Alopecurus myosuroides)
Experiment: Test A postemergence, visual injury rating
Format: in vivo
Conditions: 125 g ai/ha, 0 is no effect, 100 is complete control
Record form. Attribute: Blackgrass plant response rating (0 to 100 scale). Fill in for each entry.
One number for each entry.

Field: example entries. Status: answers known.
| Molecule | Observed Measurement |
| --- | --- |
| O=C(OC1CCC1)c1c(Br)cccc1Oc1ncc(Cl)cn1 [Compound 78] | 20 |
| N#Cc1cccc(Oc2ncc(Cl)cn2)c1COCCC(F)(F)F [Compound 80] | 90 |
| O=C(OCC1CC1(F)F)c1c(Br)cccc1Oc1ncc(Cl)cn1 (stereo not shown) [Compound 10] | 20 |
| FC(F)(F)CCOCc1c(Br)cccc1Oc1ncc(Cl)cn1 [Compound 66] | 100 |
| N#Cc1cccc(Oc2ncc(Cl)cn2)c1C(=O)OCCC(F)(F)F [Compound 30] | 10 |
| O=C(OCCC(F)(F)F)c1c(F)cccc1Oc1ncc(Br)cn1 [Compound 41] | 0 |

Prompt: Reported Blackgrass plant response rating (0 to 100 scale) for blackgrass (Alopecurus myosuroides), given CN(CCC(F)(F)F)C(=O)c1c(Br)cccc1Oc1ncc(Cl)cn1 [Compound 19] ?
Response: 0

###

System: galium (catchweed bedstraw, Galium aparine)
Experiment: Test A postemergence, visual injury rating
Type: in vivo
Conditions: 31 g ai/ha, 0 to 100 scale, 0 is no effect, 100 is complete control, approximately 10 days
Attribute Measured: Galium plant response rating

Guide cases for Galium plant response rating, answers given:
| Molecule | Galium plant response rating |
| --- | --- |
| O=C(OCCC(F)(F)F)c1c(Oc2ncc(Cl)cn2)cccc1C(F)(F)F [Compound 113] | 40 |
| FC(F)(F)CCCOCc1c(Br)cccc1Oc1ncc(Cl)cn1 [Compound 74] | 20 |
| O=C(OCCC(F)(F)F)c1c(OCC(F)(F)F)cccc1Oc1ncc(Cl)cn1 [Compound 117] | 60 |
| O=C(OCCCl)c1c(Br)cccc1Oc1ncc(Cl)cn1 [Compound 46] | 50 |
| CCCCC(C#N)c1c(Br)cccc1Oc1ncc(Cl)cn1 (stereo not drawn) [Compound 114] | 50 |
| FC(F)(F)CCCCCc1c(Br)cccc1Oc1ncc(Cl)cn1 [Compound 121] | 70 |
| C=CC(C)COC(=O)c1c(Br)cccc1Oc1ncc(Cl)cn1 (stereo not drawn) [Compound 37] | 10 |
| CCCCCc1c(C#N)cccc1Oc1ncc(Cl)cn1 [Compound 87] | 30 |
| CC(=NOC(C)C)c1c(Br)cccc1Oc1ncc(Cl)cn1 [Compound 105] | 10 |
| CC(C)(C)CCOC(=O)c1c(Br)cccc1Oc1ncc(Cl)cn1 [Compound 96] | 0 |

Go through the items and report each one's Galium plant response rating.
1. COc1cccc(Oc2ncc(Cl)cn2)c1C(C)=O [Compound 51]
2. O=C(CCC(F)(F)C(F)(F)F)c1c(Br)cccc1Oc1ncc(Cl)cn1 [Compound 110]

Response:
[0, 70]
